System: Mycobacterium kansasii
Assay: Antimycobacterial activity against Mycobacterium kansasii 6509/96 after 7 days by micromethod
Type: functional
Settings: 6509/96, 168 h
metric: MIC
Hey, just the number and the unit after it is fine.

As a guide, the following entries are already answered.
structure-as-smiles	target	MIC
O=[N+]([O-])c1cc(CSc2nnn(Cc3ccc(Cl)c(Cl)c3)n2)cc([N+](=O)[O-])c1	Mycobacterium kansasii	16 µM
O=[N+]([O-])c1cc(CSc2nnn(Cc3ccccc3)n2)cc([N+](=O)[O-])c1	Mycobacterium kansasii	4 µM
O=[N+]([O-])c1ccc(C[Se]c2nnn(Cc3ccccc3)n2)c([N+](=O)[O-])c1	Mycobacterium kansasii	32 µM

Hi! Can you tell me MIC for each of these compounds?
1. NNC(=O)c1ccncc1
2. O=[N+]([O-])c1cc(C[Se]c2nnn(Cc3ccccc3)n2)cc([N+](=O)[O-])c1
3. O=[N+]([O-])c1cc(CSc2nnnn2Cc2ccc(Cl)cc2)cc([N+](=O)[O-])c1

Resp:
1: 4 µM; 2: 1 µM; 3: 4 µM

###

Tested on: Mycobacterium kansasii
Assay: Antimycobacterial activity against Mycobacterium kansasii 6509/96 after 7 days by micromethod
Format: functional
Conditions: 6509/96, 168 h
metric: MIC (µM)
Give bare numbers, in µM.

As a guide, the following entries are already answered.
structure-as-smiles	MIC, µM
O=[N+]([O-])c1cc(Cn2nnnc2[Se]Cc2ccccc2)cc([N+](=O)[O-])c1	16
O=[N+]([O-])c1ccc(CSc2nnnn2Cc2ccccc2)c([N+](=O)[O-])c1	16
O=[N+]([O-])c1cc(CSc2nnn(Cc3ccc(Cl)cc3)n2)cc([N+](=O)[O-])c1	16
Cn1nnc([Se]Cc2cc([N+](=O)[O-])cc([N+](=O)[O-])c2)n1	2
COc1ccc(C[Se]c2nnnn2Cc2ccc([N+](=O)[O-])cc2[N+](=O)[O-])cc1	4
O=[N+]([O-])c1cc(CSc2nnnn2Cc2ccccc2)cc([N+](=O)[O-])c1	2
COc1ccc(C[Se]c2nnnn2Cc2cc([N+](=O)[O-])cc([N+](=O)[O-])c2)cc1	16
O=[N+]([O-])c1cc(Cn2nnnc2SCc2ccccc2)cc([N+](=O)[O-])c1	16

// next entry
Req: // Input: Cn1nnc([Se]Cc2ccc([N+](=O)[O-])cc2[N+](=O)[O-])n1 . Output its MIC only.
Resp: 16

###

Test system: Candida tropicalis
Assay: Antifungal activity against Candida tropicalis 156 after 24 to 48 hrs by broth micro dilution method
Assay type: functional, organism-based
Activity calls are given as the source filed them. The rule behind the calls is not given here.
metric: Activity

structure-as-smiles	target	result
O=[N+]([O-])c1cc(C[Se]c2nnnn2Cc2ccccc2)cc([N+](=O)[O-])c1	Candida tropicalis	inactive
O=[N+]([O-])c1cc(CSc2nnn(Cc3ccccc3)n2)cc([N+](=O)[O-])c1	Candida tropicalis	inactive
O=[N+]([O-])c1cc(C[Se]c2nnn(Cc3ccccc3)n2)cc([N+](=O)[O-])c1	Candida tropicalis	inactive
O=[N+]([O-])c1cc(CSc2nnnn2Cc2ccccc2)cc([N+](=O)[O-])c1	Candida tropicalis	inactive

###

Tested on: Mycobacterium kansasii
Test: Antimycobacterial activity against Mycobacterium kansasii My 235/80 after 21 days by micromethod
Assay type: functional
Details: My 235/80, 504 h
metric: log10 of MIC (log10 of the value in µM)
Hi team, quick reminder: these entries are log10 of MIC (µM).

As a guide, the following entries are already answered.
structure-as-smiles	log10 of MIC
O=[N+]([O-])c1ccc(C[Se]c2nnn(Cc3ccc([N+](=O)[O-])cc3)n2)cc1	2.10
O=[N+]([O-])c1ccc(Cn2nnnc2[Se]Cc2ccccc2)c([N+](=O)[O-])c1	1.79
O=[N+]([O-])c1ccc(C[Se]c2nnn(Cc3ccccc3)n2)c([N+](=O)[O-])c1	1.51
O=[N+]([O-])c1cc(CSc2nnnn2Cc2ccc(Cl)c(Cl)c2)cc([N+](=O)[O-])c1	0.60
NNC(=O)c1ccncc1	2.40
Cn1nnc(SCc2ccc([N+](=O)[O-])cc2[N+](=O)[O-])n1	2.10

Hi! Can you tell me log10 of MIC for each of these molecules?
1. O=[N+]([O-])c1ccc(CSc2nnnn2Cc2ccc([N+](=O)[O-])cc2)cc1
2. O=[N+]([O-])c1cc(CSc2nnn(Cc3ccccc3)n2)cc([N+](=O)[O-])c1
3. O=[N+]([O-])c1ccc(CSc2nnn(Cc3ccc([N+](=O)[O-])cc3)n2)cc1

Resp:
[2.40, 1.20, 2.40]
